Listing: pIC50 of selected compounds
- testedSystem: Aromatase (Homo sapiens, UniProt P11511)
- Sequence (P11511 whole entry): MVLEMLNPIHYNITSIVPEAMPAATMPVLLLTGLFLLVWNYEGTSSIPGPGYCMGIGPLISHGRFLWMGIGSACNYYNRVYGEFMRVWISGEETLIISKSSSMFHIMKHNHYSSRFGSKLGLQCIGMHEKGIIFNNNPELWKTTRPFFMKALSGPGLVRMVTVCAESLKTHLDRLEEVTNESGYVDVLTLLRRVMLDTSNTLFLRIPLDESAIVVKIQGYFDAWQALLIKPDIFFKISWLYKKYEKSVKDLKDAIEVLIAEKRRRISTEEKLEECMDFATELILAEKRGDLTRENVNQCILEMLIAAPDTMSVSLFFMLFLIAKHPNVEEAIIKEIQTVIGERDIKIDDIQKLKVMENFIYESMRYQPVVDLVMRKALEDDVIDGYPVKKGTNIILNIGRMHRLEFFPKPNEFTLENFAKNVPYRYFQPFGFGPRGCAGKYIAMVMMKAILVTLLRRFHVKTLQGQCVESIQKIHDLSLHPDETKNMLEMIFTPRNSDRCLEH
pIC50: −log10 of the molar value.
propertyLabel: pIC50

compoundstructure=CCOC1=C[C@@H]2[C@H](CC[C@]3(C)C(=O)CC[C@@H]23)[C@@]2(C)C=CC(=O)C=C12 numericreadout=6.02
compoundstructure=C/C=C1\CC[C@@]2(C)[C@@H](CC[C@@H]3[C@@H]2CC[C@]2(C)C4=NN(c5ccccc5)[C@H](c5ccc(OC)cc5)[C@H]4C[C@@H]32)C1 numericreadout=5.49
compoundstructure=CCCCO[C@H]1C[C@@H]2[C@H](CC[C@]3(C)C(=O)CC[C@@H]23)[C@@]2(C)C=CC(=O)C=C12 numericreadout=6.18
compoundstructure=C[C@]12CC[C@H](OC(=O)C(F)(F)F)C[C@@H]1CC[C@@H]1[C@@H]2CC[C@]2(C)C(=O)/C(=C\c3ccccc3)C[C@@H]12 numericreadout=5.15
compoundstructure=C[C@]12CCC(=O)C(S)=C1CC[C@@H]1[C@@H]2CC[C@]2(C)C(=O)CC[C@@H]12 numericreadout=5.46
compoundstructure=CSCSC1=C2CC[C@@H]3C(=CC[C@]4(C)C(=O)CC[C@@H]34)[C@@]2(C)CCC1=O numericreadout=5.92
compoundstructure=C[C@]12CCC(=O)C=C1[C@@H](Oc1ccccc1)C[C@@H]1[C@@H]2CC[C@]2(C)C(=O)CC[C@@H]12 numericreadout=7.00
